# System: SW-620 colon
# Method: NCI tumour cell line growth inhibition, 48 h
Documented GI50 across a set of compounds

>  <Compound>
CSc1ccc2c(c1)C(N1CCN(C)CC1)Cc1ccccc1S2 (centres undefined)

>  <GI50>
1.69 µM

$$$$
>  <Compound>
COc1ccc(/C=C/C(=O)c2sc(-n3nc(-c4ccccc4)cc3-c3ccccc3)nc2C)cc1

>  <GI50>
> 100 µM

$$$$
>  <Compound>
CCOC(=O)c1cnc2c(C)cccc2c1Nc1ccc(C(C)=O)cc1

>  <GI50>
92.6 µM

$$$$
>  <Compound>
CCn1c(-c2nonc2N)nc2cncc(C(=O)N3CC[C@H](N)C3)c21

>  <GI50>
> 25 µM

$$$$
>  <Compound>
N=c1c2c(=N)n3c(nc2nc2n1-c1ccccc1Sc1ccccc1-2)sc1cc(Cl)ccc13

>  <GI50>
3.14 µM

$$$$
>  <Compound>
CCCCCCCCCCCCCC[C@@H](O)[C@H]1CC[C@H]([C@H]2CC[C@H]([C@H](O)CCCCCC[C@@H](O)CC3=C[C@H](C)OC3=O)O2)O1

>  <GI50>
2.44 µM

$$$$
>  <Compound>
COC(=O)c1ccc(NC(=O)Oc2ccc(N(CCCl)CCCl)cc2)cc1

>  <GI50>
4.89 µM

$$$$
>  <Compound>
COc1nnc2ccc(N3CCC(c4ccc(OCCN5CCN(C)C(=O)[C@H]5C)cc4)CC3)nn12

>  <GI50>
5.03 µM

$$$$
>  <Compound>
CN1C(=O)C2(c3ccccc31)N(c1ccc(Cl)cc1)C(=O)C2(c1ccccc1)c1ccccc1 (centres undefined)

>  <GI50>
> 100 µM

$$$$

Value source: PubChem BioAssay (NCI)
